Entries and their Aqueous Solubility values follow.
assay-text: Kinetic aqueous solubility in PBS by nephelometry
condition-details: PBS buffer (pH 7.4) with 1% DMSO, nephelometry

compound | Aqueous Solubility, µM
COc1ccccc1-c1ncc(C(=O)NCCc2c(C)[nH]c3ccccc23)cn1 [Compound 14a] | 71
Cc1[nH]c2ccccc2c1CCNC(=O)c1cnc(Nc2cccc(O)n2)nc1 [Compound 20i] | 10
COc1cc(OC)cc(-c2ccc(C(=O)NCCc3c(C)[nH]c4ccccc34)nc2)c1 [Compound 11b] | 10
CC(=O)Nc1ccc(-c2ccc(C(=O)NCCc3c(C)[nH]c4ccccc34)nc2)cc1 [Compound 11c] | 10
Cc1cc(C)nc(Nc2ncc(C(=O)NCCc3c(C)[nH]c4ccc(Cl)cc34)cn2)c1 [Compound 24b] | 20
Cc1[nH]c2ccccc2c1CCNC(=O)c1cnc(Nc2ccncc2)nc1 [Compound 20p] | 38
Cc1cccc(Nc2ncc(C(=O)NCCc3c(C)[nH]c4ccccc34)cn2)n1 [Compound 20e] | 25
CC(=O)Nc1ccc(-c2ccc(C(=O)NCCc3c(C)[nH]c4ccccc34)cn2)cc1 | 25
Cc1[nH]c2ccccc2c1CCNC(=O)c1cnc(Nc2cc(F)ccn2)nc1 [Compound 20c] | 15
COc1ccccc1-c1ccc(C(=O)NCCc2c(C)[nH]c3ccccc23)cc1F [Compound 14b] | 10
Cc1ccnc(Nc2ncc(C(=O)NCCc3c(C)[nH]c4ccccc34)cn2)c1 [Compound 20b] | 25
COc1ccc2[nH]c(C)c(CCNC(=O)c3cnc(Nc4cc(C)cc(C)n4)nc3)c2c1 [Compound 24e] | 20
COc1ccccc1-c1ccc(C(=O)NCCc2c(C)[nH]c3ccccc23)cn1 | 28
CC(=O)c1cccc(Nc2ncc(C(=O)NCCc3c(C)[nH]c4ccccc34)cn2)n1 [Compound 20j] | 5
